log10(IC50) by entry:
# Test System: AKT3 (Homo sapiens, UniProt Q9Y243)
# Sequence (Q9Y243 2-479): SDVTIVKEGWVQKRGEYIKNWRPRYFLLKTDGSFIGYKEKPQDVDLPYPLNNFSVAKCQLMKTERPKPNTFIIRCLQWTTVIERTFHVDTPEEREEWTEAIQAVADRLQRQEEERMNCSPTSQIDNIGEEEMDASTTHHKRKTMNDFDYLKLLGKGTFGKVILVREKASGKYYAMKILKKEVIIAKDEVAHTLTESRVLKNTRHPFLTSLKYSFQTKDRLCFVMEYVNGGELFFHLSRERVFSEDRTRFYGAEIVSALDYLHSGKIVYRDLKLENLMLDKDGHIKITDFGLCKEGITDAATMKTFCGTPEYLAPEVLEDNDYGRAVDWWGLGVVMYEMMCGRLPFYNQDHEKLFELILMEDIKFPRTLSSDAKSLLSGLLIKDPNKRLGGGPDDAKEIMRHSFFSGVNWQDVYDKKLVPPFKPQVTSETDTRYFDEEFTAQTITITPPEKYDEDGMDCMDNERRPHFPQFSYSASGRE
# Test Protocol: Biochemical assay for inhibitors of AKT3 kinase activity (33P trans-phosphorylation, Dowex resin)
# Settings: 1 nM enzyme, 180 microM ATP, 28.5 microM peptide substrate; read-out: AKT3 IC50 (µM) Biochem assay
# Method: The N-terminal GST fusion proteins used for the assays were prepared according to the methods described in Kumar, C. C. Biochem. Biophys. ACTA 2001, 1526, 257-268, and in Alessi, D. R.. Biochem. J. 1998 331, 299-308. The in vitro kinase inhibition assay was conducted in the same way as described for AKT1. […]
Assay Endpoint: log10(IC50) (log10 of the value in µM)

Smiles Input | log10(IC50)
O=C(N[C@H](CN1CCCC1)c1ccccc1)C1=Cc2c[nH]c3nccc(c23)CC1 | -1.37
NC[C@H](Cc1ccccc1)NC(=O)C1=Cc2c[nH]c3nccc(c23)CC1 | -1.49
NC[C@H](Cc1ccccc1)NC(=O)C1=Cc2c[nH]c3nccc(c23)NC1 | -1.39
CC(=O)N1CC(C(=O)N[C@H](CN)Cc2ccccc2)=Cc2c[nH]c3nccc1c23 | -0.73
NC[C@H](Cc1ccccc1)NC(=O)c1cc2c3c(nccc3c1)NC2 | -0.14
O=C(N[C@H](CN1CCCC1)c1ccccc1)c1cc2c3c(nccc3c1)NC2 | 0.03

====

Readings of IC50 for the listed compounds
# Test System: AKT2 (Homo sapiens)
# Construct: made in house
# Sequence (P31751 whole entry, species assumed): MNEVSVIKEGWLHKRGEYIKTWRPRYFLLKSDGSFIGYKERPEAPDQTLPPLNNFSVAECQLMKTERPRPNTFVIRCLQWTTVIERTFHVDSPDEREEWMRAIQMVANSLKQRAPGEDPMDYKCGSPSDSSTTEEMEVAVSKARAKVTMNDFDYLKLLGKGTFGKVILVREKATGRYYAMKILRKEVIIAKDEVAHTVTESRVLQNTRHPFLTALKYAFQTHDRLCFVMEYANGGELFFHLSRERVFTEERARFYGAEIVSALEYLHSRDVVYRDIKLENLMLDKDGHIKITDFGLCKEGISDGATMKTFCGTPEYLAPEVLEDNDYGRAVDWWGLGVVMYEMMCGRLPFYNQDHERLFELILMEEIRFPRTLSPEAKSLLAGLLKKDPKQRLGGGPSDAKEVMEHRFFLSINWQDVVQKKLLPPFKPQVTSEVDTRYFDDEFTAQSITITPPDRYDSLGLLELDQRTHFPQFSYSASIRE
# Test Protocol: Biochemical assay for inhibitors of AKT2 kinase activity (33P trans-phosphorylation, Dowex resin)
# Settings: 10 nM enzyme, 396 microM ATP, 8.5 microM peptide substrate; read-out: AKT2 IC50 (µM) Biochem assay

Smiles Input | Test System | IC50 [µM]
NC[C@H](Cc1ccccc1)NC(=O)c1cc2c3c(nccc3c1)NC2 | AKT2 (Homo sapiens) | 0.797
O=C(N[C@H](CN1CCCC1)c1ccccc1)c1cc2c3c(nccc3c1)NC2 | AKT2 (Homo sapiens) | 1.86
NC[C@H](Cc1ccccc1)NC(=O)C1=Cc2c[nH]c3nccc(c23)CC1 | AKT2 (Homo sapiens) | 0.266
CC(=O)N1CC(C(=O)N[C@H](CN)Cc2ccccc2)=Cc2c[nH]c3nccc1c23 | AKT2 (Homo sapiens) | 1.99
NC[C@H](Cc1ccccc1)NC(=O)C1=Cc2c[nH]c3nccc(c23)NC1 | AKT2 (Homo sapiens) | 0.155
O=C(N[C@H](CN1CCCC1)c1ccccc1)C1=Cc2c[nH]c3nccc(c23)CC1 | AKT2 (Homo sapiens) | 0.362

====

# Test System: AKT1 (Homo sapiens)
# Sequence (P31749 whole entry): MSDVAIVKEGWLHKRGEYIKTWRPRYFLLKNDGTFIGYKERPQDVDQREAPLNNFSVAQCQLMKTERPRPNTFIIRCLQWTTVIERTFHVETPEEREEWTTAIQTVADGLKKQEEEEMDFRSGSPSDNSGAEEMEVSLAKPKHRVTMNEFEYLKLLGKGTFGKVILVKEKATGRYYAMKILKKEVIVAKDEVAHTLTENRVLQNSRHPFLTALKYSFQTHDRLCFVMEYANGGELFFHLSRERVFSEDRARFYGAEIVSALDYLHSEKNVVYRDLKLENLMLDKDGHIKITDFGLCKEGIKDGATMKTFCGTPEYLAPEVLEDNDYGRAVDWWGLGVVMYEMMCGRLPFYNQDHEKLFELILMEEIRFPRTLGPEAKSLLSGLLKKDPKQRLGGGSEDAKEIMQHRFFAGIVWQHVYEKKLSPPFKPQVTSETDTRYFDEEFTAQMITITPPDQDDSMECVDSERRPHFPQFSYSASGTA
# Test Protocol: Biochemical assay for inhibitors of AKT1 kinase activity (33P trans-phosphorylation, Dowex resin)
# Design: made in house
# Settings: 5 nM enzyme, 132 microM ATP, 30 microM peptide substrate; read-out: AKT1 IC50 (µM) Biochem assay
Quick rule for you: IC50 under 0.1 µM gets 1 (yes), anything else gets 0 (no).

Smiles Input | Group
NC[C@H](Cc1ccccc1)NC(=O)C1=Cc2c[nH]c3nccc(c23)CC1 | 1 (yes)
O=C(N[C@H](CN1CCCC1)c1ccccc1)c1cc2c3c(nccc3c1)NC2 | 0 (no)
NC[C@H](Cc1ccccc1)NC(=O)c1cc2c3c(nccc3c1)NC2 | 0 (no)
O=C(N[C@H](CN1CCCC1)c1ccccc1)C1=Cc2c[nH]c3nccc(c23)CC1 | 0 (no)
NC[C@H](Cc1ccccc1)NC(=O)C1=Cc2c[nH]c3nccc(c23)NC1 | 1 (yes)
CC(=O)N1CC(C(=O)N[C@H](CN)Cc2ccccc2)=Cc2c[nH]c3nccc1c23 | 0 (no)
